Data provenance: patent US10479780B2

Target: human Src enzyme (Homo sapiens, UniProt P12931)
Construct: purchased Carna Biosciences, Inc. 08-173
Sequence (P12931 whole entry): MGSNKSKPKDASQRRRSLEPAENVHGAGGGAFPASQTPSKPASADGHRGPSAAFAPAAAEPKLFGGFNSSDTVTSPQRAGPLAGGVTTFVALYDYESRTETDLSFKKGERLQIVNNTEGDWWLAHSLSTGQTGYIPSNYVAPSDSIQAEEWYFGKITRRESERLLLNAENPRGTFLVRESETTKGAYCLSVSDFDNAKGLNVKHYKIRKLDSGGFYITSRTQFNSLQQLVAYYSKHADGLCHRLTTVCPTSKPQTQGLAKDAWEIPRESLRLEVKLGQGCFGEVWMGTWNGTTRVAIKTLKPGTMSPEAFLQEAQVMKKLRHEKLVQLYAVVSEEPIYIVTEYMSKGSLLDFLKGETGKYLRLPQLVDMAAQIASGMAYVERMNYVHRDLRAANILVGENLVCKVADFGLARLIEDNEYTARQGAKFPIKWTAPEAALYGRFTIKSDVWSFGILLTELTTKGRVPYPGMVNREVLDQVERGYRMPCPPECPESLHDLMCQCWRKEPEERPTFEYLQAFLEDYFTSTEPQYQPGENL
Test: Src enzyme inhibitory activity (time-resolved fluorometry, biotinylated peptide phosphorylation)
Type: biochemical
Settings: read-out: SRC_IC50
pIC50: −log10 of the molar value.
Mark condition not met for pIC50 values under 7, and condition met for everything at or above.

- compound structure string: "Cc1cc2cc(C(=O)c3cnn(-c4ccc(Oc5ccccc5F)c(C)c4C)c3N)[nH]c2cc1NS(C)(=O)=O"
  label: "condition not met"
- compound structure string: "Cc1cc(Oc2ccccc2F)ccc1-n1ncc(C(=O)c2cc3cc(C(C)C)c(NS(=O)(=O)C4CCOCC4)cc3[nH]2)c1N"
  label: "condition not met"
- compound structure string: "Cc1cc(Oc2ccccc2F)cc(F)c1-n1ncc(C(=O)c2cc3cc(OC4CCN(C(C)C)CC4)c(Br)cc3[nH]2)c1N"
  label: "condition met"
- compound structure string: "Cc1cc(-n2ncc(C(=O)c3cc4cc(OC5CCN(C6CCC6)CC5)c(N)cc4[nH]3)c2N)ccc1Oc1ccccc1F"
  label: "condition not met"
- compound structure string: "CS(=O)(=O)Nc1cc2[nH]c(C(=O)c3cnn(-c4c(Cl)cc(Oc5ccccc5F)cc4Cl)c3N)cc2cc1F"
  label: "condition not met"

Kindly review the next molecule as well.
// query Given the entry Cc1cc(Oc2ccccc2F)ccc1-n1ncc(C(=O)c2cc3cc(OCC(F)F)c(N4C(=O)[C@@H]5C[C@H](NS(=O)(=O)CCCF)CN5C4=O)cc3[nH]2)c1N , answer whether its pIC50 meets or surpasses 7.
// result condition met
